Give measured z-score for each item. Keep answers brief.
experiment: HepG2 liver cancer cell viability effects, profiling panel, resazurin fluorescence, 24 h, PK04 Diversity Set (AID 1172); conditions: higher = more signal; also: test concentration not given here
Lab note: write the figure by itself, no unit.

Fill in the blank: the reported z-score of `CC(C)=C1C(=O)C(c2ccccc2)=C2CN3C(=O)N(CCc4ccccc4)C(=O)[C@]3(Cc3ccccc3)[C@H]21` is ____. -1.18

Fill in the blank: the reported z-score of `CC(C)CNC(=O)[C@@]1(C)c2ccccc2C(=O)N(Cc2ccc(OC(F)(F)F)cc2)[C@H]1c1ccc(CO)cc1` is ____. 0.518

Fill in the blank: the reported z-score of `CCOC(=O)C[C@H]1[C@H](OC(=O)c2ccccc2-c2ccccc2)[C@@H](NC(=O)c2ccc(-c3ccccc3)cc2)c2cc(OCCCO)ccc2N1C(=O)Cc1ccc(OC)cc1` is ____. -0.235

Fill in the blank: the reported z-score of `C=C(CCCC)/C(=C/C[C@@H](OC(=O)c1ccncc1)c1ccc(CO)o1)c1cnc2ccccc2c1` is ____. -0.0346

Fill in the blank: the reported z-score of `CC(C)[Si]1(C(C)C)O[C@@H](c2ccccc2)c2cc(C3CC3)nc(-c3ccc(Oc4ccccc4)cc3)c21` is ____. 1.08

Fill in the blank: the reported z-score of O=C1C2C=CC(C(O)C#Cc3ccccc3)N(Nc3ccccc3)C2C(=O)N1c1ccccc1 (configuration not stated) is ____. 0.198

Fill in the blank: the reported z-score of `COc1ccc([Si](C)(C)[C@H]2[C@H](CC(=O)N(CCO)Cc3ccccc3)O[C@@]3(C(=O)N(C)c4ccccc43)[C@@H]2C)cc1` is ____. 0.514

###

test system: Chordin-like protein 2 (CHRDL2); experiment: CHRDL2 small-molecule binders, primary screen, biochemical, small-molecule microarray, 635 nm fluorescence (AID 1126); conditions: small-molecule microarray binding, fluorescence 635 nm; higher = more signal;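 also: printed compound slides probed with Chrdl2 protein at 4 µg/mL for 1 h at 4 C; score merges 667 nm emission intensity with signal to noise over three replicate slides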
composite z-score of -0.08 or higher: Condition met. Under -0.08: Condition not met.

Reported composite z-score reaches at least -0.08 for `CCCC=C(CCC)[C@@H](NC(=O)c1ccccc1)c1ccccc1` ? Condition not met

Reported composite z-score reaches at least -0.08 for `CC(C)CNC(=O)[C@@]1(C)c2ccccc2C(=O)N(Cc2ccc(OC(F)(F)F)cc2)[C@H]1c1ccc(CO)cc1` ? Condition not met

Reported composite z-score reaches at least -0.08 for `COCCOC(=O)N1C(=O)[C@@]2(c3cc(C#CC4=CCCCC4)ccc31)[C@H](C(=O)NC[C@H](O)c1ccccc1)[C@H]1C(=O)O[C@H](c3ccccc3)[C@H](c3ccccc3)N1[C@@H]2c1ccccc1OCCO` ? Condition met

Reported composite z-score reaches at least -0.08 for `CCCC=C(CCC)[C@@H](NC(=O)c1ccc(C(F)(F)F)cc1)c1ccccc1` ? Condition not met

Reported composite z-score reaches at least -0.08 for `COCCOC(=O)N1C(=O)[C@@]2(c3ccccc31)[C@H](C(=O)N1CCc3cc(OC)c(OC)cc3C1)[C@H]1C(=O)O[C@H](c3ccccc3)[C@H](c3ccccc3)N1[C@@H]2c1ccccc1OCCO` ? Condition met

Reported composite z-score reaches at least -0.08 for `CO[C@H]1COC(=O)CC=C[C@H](C)COC(=O)[C@@H](OCc2ccccc2)C=C[C@@H]1C` ? Condition met

Reported composite z-score reaches at least -0.08 for `COC(=O)C1=C(C)N(Cc2ccccc2)c2c(C(=O)OC)c(C(=O)OC)c(C(=O)OC)c(=O)n2[C@@H]1c1ccccc1` ? Condition met

Reported composite z-score reaches at least -0.08 for `COCCOC(=O)N1C(=O)[C@@]2(c3cc(C#CCCO)ccc31)[C@H](C(=O)N1CCCCCCC1)[C@H]1C(=O)O[C@H](c3ccccc3)[C@H](c3ccccc3)N1[C@@H]2c1ccc(O)cc1` ? Condition met

Reported composite z-score reaches at least -0.08 for O=C1C2C=CC(C(O)C#Cc3ccccc3)N(Nc3ccccc3)C2C(=O)N1c1ccccc1 (stereo not drawn) ? Condition not met

Reported composite z-score reaches at least -0.08 for `Cc1ccc(S(=O)(=O)c2cc3oc2CC[C@@H](CO)NC(=O)N(C)Cc2cn(nn2)C[C@H](Cc2ccccc2)NC3=O)cc1` ? Condition not met

Reported composite z-score reaches at least -0.08 for `CCOC(=O)C[C@H]1[C@H](OC(=O)c2cc3ccccc3oc2=O)[C@@H](NC(=O)C2CCCCC2)c2cc(OCCCO)ccc2N1C(=O)c1ccc2ccccc2n1` ? Condition met

Reported composite z-score reaches at least -0.08 for `O=[N+]([O-])c1ccc(C[n+]2ccc3ccc(O)cc3c2)o1` ? Condition met

Reported composite z-score reaches at least -0.08 for C=CC[C@@]1(C(=O)NCC(O)CO)N=C(c2ccc(OCCCO)cc2)O[C@@H]1c1ccccc1CN=[N+]=[N-] (stereo partly drawn) ? Condition not met

Reported composite z-score reaches at least -0.08 for `CO[C@H]1O[C@H](CO)[C@@H](OC(=O)Nc2ccccc2)[C@H](OC(=O)Nc2ccc3c(c2)OCO3)[C@@H]1OC(=O)Nc1ccc2c(c1)OCO2` ? Condition not met

Reported composite z-score reaches at least -0.08 for `COCCOC(=O)N1C(=O)[C@@]2(c3cc(C#CCNC(N)=O)ccc31)[C@H](C(=O)N1CCCCCCC1)[C@H]1C(=O)O[C@H](c3ccccc3)[C@H](c3ccccc3)N1[C@@H]2c1ccccc1OCCO` ? Condition met

Reported composite z-score reaches at least -0.08 for `Cc1ccc(S[C@]2(C(=O)O)CC(=O)N(Cc3cc(C(F)(F)F)cc(C(F)(F)F)c3)[C@@H]2c2ccc(CO)cc2I)cc1` ? Condition not met

Reported composite z-score reaches at least -0.08 for `COc1cc(Cc2cc3c(c(CCc4ccccc4)n2)[Si](C(C)C)(C(C)C)OC3)cc(OC)c1OC` ? Condition met

Reported composite z-score reaches at least -0.08 for Cc1cc(C)c(C(O)C2C=CC3C(=O)N(C)C(=O)C3N2N2CCCCC2)c(C)c1 (stereo not drawn) ? Condition met

Reported composite z-score reaches at least -0.08 for `O=C1O[C@@H](c2ccccc2)[C@@H](c2ccccc2)N2[C@@H](c3ccc(OCCO)cc3)[C@]3(C(=O)Nc4ccc(C#CCCO)cc43)[C@@H](C(=O)N3CCN(c4ncccn4)CC3)[C@H]12` ? Condition met

Reported composite z-score reaches at least -0.08 for `O=C1C[C@@](C(=O)NC2CC2)(c2ccc([N+](=O)[O-])cc2)[C@@H](c2ccc(CO)cc2I)N1CC12CC3CC(CC(C3)C1)C2` ? Condition met

Reported composite z-score reaches at least -0.08 for `COc1ccc([Si](C)(C)[C@H]2[C@H](CCO)O[C@@]3(C(=O)N(Cc4ccccc4)c4ccc(N5C(=O)c6cccc7cccc5c67)cc43)[C@@H]2C)cc1` ? Condition not met

Reported composite z-score reaches at least -0.08 for `CCOC(=O)C[C@H]1[C@H](OC(=O)c2ccccc2-c2ccccc2)[C@@H](NC(=O)c2ccc(-c3ccccc3)cc2)c2cc(OCCCO)ccc2N1C(=O)Cc1ccc(OC)cc1` ? Condition met

Reported composite z-score reaches at least -0.08 for `CC(=O)NCCCC[C@@H]1NC(=O)[C@H]2C[C@@H](C(=O)NCCCCCCN(C)C)[C@@H](c3ccc(O)cc3)N2C1=O` ? Condition met

Reported composite z-score reaches at least -0.08 for O=C1C2C=CC(C(O)c3ccccc3)N(n3cnnc3)C2C(=O)N1Cc1ccccc1 (stereo not drawn) ? Condition met

Reported composite z-score reaches at least -0.08 for `COc1cc(CO)cc(I)c1O[C@H]1C=C(C(=O)NCCO)C[C@@H](NCCc2c[nH]c3ccccc23)[C@@H]1O` ? Condition met

Reported composite z-score reaches at least -0.08 for `[N-]=[N+]=NCc1ccccc1[C@H]1OC(c2ccc(OCCCO)cc2)=N[C@@]1(Cc1ccccc1N=[N+]=[N-])C(=O)NCc1ccccc1` ? Condition not met

Reported composite z-score reaches at least -0.08 for `CCCCCCc1nc(-c2cc(C)c(OC)c(C)c2)cc2c1[Si](C(C)C)(C(C)C)O[C@H]2c1ccccc1` ? Condition not met
